Where these numbers come from: patent US20260285850A1

For each entry below, report its Corn plant response rating (0 to 100 scale) value.
System: corn (Zea mays)
assay_summary: Test A postemergence application, visual injury rating 0-100
Format: in vivo
measurement_conditions: Postemergence, 16 g ai/ha, greenhouse 10 days; 0 no effect, 100 complete control
One number for each entry.

Respectfully, I request Corn plant response rating (0 to 100 scale) for each entry included below.
1. C=CC1(C(=O)NC2CC(C(=O)OC)C2)CN(c2cc(F)cc(F)c2)C(=O)O1 (stereo not shown) [Compound 173]
2. CCOC(=O)C1=CCC(NC(=O)C2(C)CN(c3cc(F)cc(F)c3)C(=O)O2)C1 (stereo not shown)
3. C=CC1(C(=O)NC2CC(C(=O)OC)C2)CN(c2cc(F)cc(F)c2)C(=O)O1 (stereo not shown) [Compound 174]
4. CC1(C(=O)NC2CC=C(C(=O)OCC(F)F)C2)CN(c2cc(F)cc(F)c2)C(=O)O1 (stereo not shown)

[100, 100, 0, 0]
